From: patent US20230072421A1

- assayText: Biodistribution study in LNCaP tumor-bearing mice (Th227 counted in organs)
- Type: in vivo, SCID mice
- cond: 0.25 h; 1500 kBq/kg
endpoint: Th-227 in lung (% ID Th-227/g organ)
Your answer is read as % ID Th-227/g organ, so omit the unit and give the number.

Item: O=C([O-])CN1CCN(CC(=O)[O-])CCN(CC(=O)NCC2CCC(C(=O)NC(Cc3ccc4ccccc4c3)C(=O)NCCCCC(NC(=O)NC(CCC(=O)O)C(=O)O)C(=O)O)CC2)CCN(CC(=O)[O-])CC1.[227Th+4] (stereo not shown) [Example 1-B-227Th] | Th-227 in lung: 4.42

Item: Cc1cc(C(=O)NCCN(CCCN(CCNC(=O)c2cc(C)n(CC(=O)O)c(=O)c2[O-])CCNC(=O)c2cc(C)n(CC(=O)NCC3CCC(C(=O)NC(Cc4cnc5ccccc5c4)C(=O)NCCCCC(NC(=O)NC(CCC(=O)O)C(=O)O)C(=O)O)CC3)c(=O)c2[O-])CCNC(=O)c2cc(C)n(CC(=O)NCC3CCC(C(=O)NC(Cc4cnc5ccccc5c4)C(=O)NCCCCC(NC(=O)NC(CCC(=O)O)C(=O)O)C(=O)O)CC3)c(=O)c2[O-])c([O-])c(=O)n1CC(=O)O.[227Th+4] (stereo not shown) [Example 22-C dimer-227Th] | Th-227 in lung: 3.56

Item: O=C([O-])CN1CCN(CC(=O)[O-])CCN(CC(=O)NCc2ccc(C(=O)N[C@@H](Cc3ccc4ccccc4n3)C(=O)NCCCC[C@H](NC(=O)N[C@@H](CCC(=O)O)C(=O)O)C(=O)O)nc2)CCN(CC(=O)[O-])CC1.[227Th+4] [Example 34-B-227Th] | Th-227 in lung: 4.04

Item: O=C([O-])CN1CCN(CC(=O)[O-])CCN(CC(=O)NCC2CCC(C(=O)NC(Cc3ccc4ccccc4c3)C(=O)NCCCCC(NC(=O)NC(CCC(=O)O)C(=O)O)C(=O)O)CC2)CCN(CC(=O)[O-])CC1.[227Th+4] [Example 1-B-D-227Th] | Th-227 in lung: 3.67

* * *

- assayText: Biodistribution study in LNCaP tumor-bearing mice (Th227 counted in organs)
- Type: in vivo, SCID mice
- cond: 1 hr; 1500 kBq/kg
endpoint: Th-227 in Liver (% ID Th-227/g organ)
Your answer is read as % ID Th-227/g organ, so omit the unit and give the number.

Item: O=C([O-])CN1CCN(CC(=O)[O-])CCN(CC(=O)NCC2CCC(C(=O)NC(Cc3ccc4ccccc4c3)C(=O)NCCCCC(NC(=O)NC(CCC(=O)O)C(=O)O)C(=O)O)CC2)CCN(CC(=O)[O-])CC1.[227Th+4] (stereo not shown) [Example 1-B-227Th] | Th-227 in Liver: 1.99

Item: O=C([O-])CN1CCN(CC(=O)[O-])CCN(CC(=O)NCC2CCC(C(=O)NC(Cc3ccc4ccccc4c3)C(=O)NCCCCC(NC(=O)NC(CCC(=O)O)C(=O)O)C(=O)O)CC2)CCN(CC(=O)[O-])CC1.[227Th+4] [Example 1-B-D-227Th] | Th-227 in Liver: 0.59

Item: O=C([O-])CN1CCN(CC(=O)[O-])CCN(CC(=O)NCc2ccc(C(=O)N[C@@H](Cc3ccc4ccccc4n3)C(=O)NCCCC[C@H](NC(=O)N[C@@H](CCC(=O)O)C(=O)O)C(=O)O)nc2)CCN(CC(=O)[O-])CC1.[227Th+4] [Example 34-B-227Th] | Th-227 in Liver: 0.88

Item: Cc1cc(C(=O)NCCN(CCCN(CCNC(=O)c2cc(C)n(CC(=O)O)c(=O)c2[O-])CCNC(=O)c2cc(C)n(CC(=O)NCC3CCC(C(=O)NC(Cc4cnc5ccccc5c4)C(=O)NCCCCC(NC(=O)NC(CCC(=O)O)C(=O)O)C(=O)O)CC3)c(=O)c2[O-])CCNC(=O)c2cc(C)n(CC(=O)NCC3CCC(C(=O)NC(Cc4cnc5ccccc5c4)C(=O)NCCCCC(NC(=O)NC(CCC(=O)O)C(=O)O)C(=O)O)CC3)c(=O)c2[O-])c([O-])c(=O)n1CC(=O)O.[227Th+4] (stereo not shown) [Example 22-C dimer-227Th] | Th-227 in Liver: 0.41

* * *

- experimentalSystem: PSMA-expressing LNCaP cells (Homo sapiens)
- Construct: PSMA-expressing LNCaP cells; endogenous in cells; host or cells: LNCaP
- Sequence (Q04609 whole entry): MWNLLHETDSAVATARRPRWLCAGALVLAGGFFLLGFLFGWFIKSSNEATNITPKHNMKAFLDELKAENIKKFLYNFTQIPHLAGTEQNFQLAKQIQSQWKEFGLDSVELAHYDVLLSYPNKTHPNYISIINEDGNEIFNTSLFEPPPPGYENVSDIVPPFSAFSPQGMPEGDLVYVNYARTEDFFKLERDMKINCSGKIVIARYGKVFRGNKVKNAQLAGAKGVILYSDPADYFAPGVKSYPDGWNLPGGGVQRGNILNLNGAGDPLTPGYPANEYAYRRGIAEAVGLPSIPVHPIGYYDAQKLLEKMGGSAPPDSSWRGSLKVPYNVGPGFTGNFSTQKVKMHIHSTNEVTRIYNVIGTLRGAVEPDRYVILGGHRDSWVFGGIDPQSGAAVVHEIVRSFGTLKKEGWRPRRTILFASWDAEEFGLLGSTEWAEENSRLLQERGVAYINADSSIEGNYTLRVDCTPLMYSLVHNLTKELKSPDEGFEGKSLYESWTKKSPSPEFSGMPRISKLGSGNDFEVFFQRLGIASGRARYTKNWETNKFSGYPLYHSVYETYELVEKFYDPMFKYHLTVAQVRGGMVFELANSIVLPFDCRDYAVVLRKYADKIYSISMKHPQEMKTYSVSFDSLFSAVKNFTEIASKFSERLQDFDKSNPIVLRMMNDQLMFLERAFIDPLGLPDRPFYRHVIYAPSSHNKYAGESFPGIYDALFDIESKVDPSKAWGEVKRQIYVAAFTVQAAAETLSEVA
- assayText: Binding competition assay against 3H-PSMA-617 on LNCaP cells
- cond: LNCaP cells; 10 nM 3H-PSMA-617; competing non-radiolabeled compound 100 nM; 2 h at 37° C.; triplicates
- Experimental: Cells were incubated at 37° C. and 5% CO2 over night. […] After addition of the compounds in growth media the cells were swiveled slightly on a shaker mixing for 10 min followed by incubation for 2 h at 37° C., 5% C02. Following the incubation time the supernatant was removed by pipetting and cells were washed twice with ice cold PBS (total of 800 μl). […] Thereafter radioactivity was counted in a Tri-Carb Liquid Scinzillation Analyzer (Perkin Elmer).
The label 1 is reserved for % remaining 3H-PSMA-617 @ 100 nM (mean) strictly under 10%; 0 covers values equal to or above it.

Ask: Strictly below 10%: is that where % remaining 3H-PSMA-617 @ 100 nM (mean) of O=C(O)CC[C@H](NC(=O)N[C@@H](CCCCNC(=O)[C@H](Cc1ccc2ccccc2c1)NC(=O)[C@H]1CC[C@H](CNC(=O)C[N+]23CC[N+]45CC[N+]67CC[N+]8(CC2)CC(=O)[O][Th]3486([O]C(=O)C5)[O]C(=O)C7)CC1)C(=O)O)C(=O)O (some centres unmarked) [Example 1-B-232Th] sits?
Reply: 0

Ask: Strictly below 10%: is that where % remaining 3H-PSMA-617 @ 100 nM (mean) of O=C(O)CC[C@H](NC(=O)N[C@@H](CCCCNC(=O)[C@H](Cc1ccc2ccccc2c1)NC(=O)[C@H]1CC[C@H](CNC(=O)COCC(=O)NCCOCCOCCOCCOCCOCCOCCOCCOCCOCCOCCOCCNC(=O)COCC(=O)Nc2ccc(CC(CN(CCNC(=O)c3ccn(CCO)c(=O)c3O)CCNC(=O)c3ccn(CCO)c(=O)c3O)CN(CCNC(=O)c3ccn(CCO)c(=O)c3O)CCNC(=O)c3ccn(CCO)c(=O)c3O)cc2)CC1)C(=O)O)C(=O)O [Example 1-PEG] sits?
Reply: 0

Ask: Strictly below 10%: is that where % remaining 3H-PSMA-617 @ 100 nM (mean) of CNc1cc(CC(NC(=O)C2CCC(CNC(=O)Cn3c(C)cc(C(=O)NCCN(CCCN(CCNC(=O)c4cc(C)n(CC(=O)O)c(=O)c4O)CCNC(=O)c4cc(C)n(CC(=O)NCC5CCC(C(=O)NC(Cc6cc(NC)c7ccccc7c6)C(=O)NCCCCC(NC(=O)NC(CCC(=O)O)C(=O)O)C(=O)O)CC5)c(=O)c4O)CCNC(=O)c4cc(C)n(CC(=O)O)c(=O)c4O)c(O)c3=O)CC2)C(=O)NCCCCC(NC(=O)NC(CCC(=O)O)C(=O)O)C(=O)O)cc2ccccc12 (centres unmarked) [37-C dimer] sits?
Reply: 0

Ask: Strictly below 10%: is that where % remaining 3H-PSMA-617 @ 100 nM (mean) of Cc1cc(C(=O)NCCN(CCCN(CCNC(=O)c2cc(C)n(CC(=O)O)c(=O)c2O)CCNC(=O)c2cc(C)n(CC(=O)NC[C@H]3CC[C@H](C(=O)N[C@@H](Cc4ccc5ccccc5c4)C(=O)NCCCC[C@H](NC(=O)N[C@@H](CCC(=O)O)C(=O)O)C(=O)O)CC3)c(=O)c2O)CCNC(=O)c2cc(C)n(CC(=O)NC[C@H]3CC[C@H](C(=O)N[C@@H](Cc4ccc5ccccc5c4)C(=O)NCCCC[C@H](NC(=O)N[C@@H](CCC(=O)O)C(=O)O)C(=O)O)CC3)c(=O)c2O)c(O)c(=O)n1CC(=O)O [1-C dimer] sits?
Reply: 1

* * *

- experimentalSystem: PSMA-expressing LNCaP cells (Homo sapiens)
- Construct: PSMA-expressing LNCaP cells; endogenous in cells; host or cells: LNCaP
- assayText: Binding competition assay against 3H-PSMA-617 on LNCaP cells
- cond: LNCaP cells; 10 nM 3H-PSMA-617; competing non-radiolabeled compound 10 nM; 2 h at 37° C.; triplicates
- Description: Cells were incubated at 37° C. and 5% CO2 over night. […] After addition of the compounds in growth media the cells were swiveled slightly on a shaker mixing for 10 min followed by incubation for 2 h at 37° C., 5% C02. Following the incubation time the supernatant was removed by pipetting and cells were washed twice with ice cold PBS (total of 800 μl). […] Thereafter radioactivity was counted in a Tri-Carb Liquid Scinzillation Analyzer (Perkin Elmer).
The label Yes is reserved for remaining activity at 0.01 µM strictly under 70%; No covers values equal to or above it.

Ask: Strictly below 70%: is that where remaining activity at 0.01 µM of NCc1ccc(C(=O)N[C@@H](Cc2ccc3ncccc3c2)C(=O)NCCCC[C@H](NC(=O)N[C@@H](CCC(=O)O)C(=O)O)C(=O)O)nc1 [Example 49-A] sits?
Reply: Yes

Ask: Strictly below 70%: is that where remaining activity at 0.01 µM of NCc1ccc(C(=O)N[C@@H](Cc2ccc3ccccc3c2)C(=O)NCCCC[C@H](NC(=O)N[C@@H](CCC(=O)O)C(=O)O)C(=O)O)cc1 [Example 24-A] sits?
Reply: Yes

Ask: Strictly below 70%: is that where remaining activity at 0.01 µM of Nc1ccc(CC(=O)N[C@@H](Cc2ccc3ccccc3c2)C(=O)NCCCC[C@H](NC(=O)N[C@@H](CCC(=O)O)C(=O)O)C(=O)O)cc1 [Example 23-A] sits?
Reply: Yes

Ask: Strictly below 70%: is that where remaining activity at 0.01 µM of O=C(O)CC[C@H](NC(=O)N[C@@H](CCCCNC(=O)[C@@H](Cc1ccc2c(c1)CCCO2)NC(=O)[C@H]1CC[C@H](CNC(=O)CN2CCN(CC(=O)O)CCN(CC(=O)O)CCN(CC(=O)O)CC2)CC1)C(=O)O)C(=O)O [Example 38-B] sits?
Reply: No

Ask: Strictly below 70%: is that where remaining activity at 0.01 µM of CC(C)(C)c1ccc(C[C@H](NC(=O)[C@H]2CC[C@H](CN)CC2)C(=O)NCCCC[C@H](NC(=O)N[C@@H](CCC(=O)O)C(=O)O)C(=O)O)cc1 [Example 8-A] sits?
Reply: No

Ask: Strictly below 70%: is that where remaining activity at 0.01 µM of O=C(O)CC[C@H](NC(=O)N[C@@H](CCCCNC(=O)[C@@H](Cc1cnc2ccccc2c1)NC(=O)c1ccc(CNC(=O)CN2CCN(CC(=O)O)CCN(CC(=O)O)CCN(CC(=O)O)CC2)cn1)C(=O)O)C(=O)O [Example 32-B] sits?
Reply: No

Ask: Strictly below 70%: is that where remaining activity at 0.01 µM of NCc1ccc(C(=O)N[C@@H](Cc2ccc3ccccc3c2)C(=O)NCCCC[C@H](NC(=O)N[C@H](CCC(=O)O)C(=O)O)C(=O)O)nc1 [Example 25-A-D] sits?
Reply: No

Ask: Strictly below 70%: is that where remaining activity at 0.01 µM of Cc1cc(C(=O)NCCN(CCCN(CCNC(=O)c2cc(C)n(CC(=O)O)c(=O)c2O)CCNC(=O)c2cc(C)n(CC(=O)NCc3ccc(C(=O)N[C@@H](Cc4ccc5ccccc5n4)C(=O)NCCCC[C@H](NC(=O)N[C@@H](CCC(=O)O)C(=O)O)C(=O)O)nc3)c(=O)c2O)CCNC(=O)c2cc(C)n(CC(=O)O)c(=O)c2O)c(O)c(=O)n1CC(=O)O [34-C monomer] sits?
Reply: Yes

Ask: Strictly below 70%: is that where remaining activity at 0.01 µM of COc1c(C[C@@H](NC(=O)c2ccc(CNC(=O)CN3CCN(CC(=O)O)CCN(CC(=O)O)CCN(CC(=O)O)CC3)cn2)C(=O)NCCCC[C@H](NC(=O)N[C@@H](CCC(=O)O)C(=O)O)C(=O)O)ccc2ccccc12 [Example 33a-B] sits?
Reply: No
